Biological target: Alpha-bungarotoxin (Bungarus multicinctus) (UniProt P60615)
Sequence (P60615 whole entry, looked up): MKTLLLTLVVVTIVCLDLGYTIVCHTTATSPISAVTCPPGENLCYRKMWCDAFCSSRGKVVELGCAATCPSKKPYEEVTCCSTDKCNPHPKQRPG
Assay: alpha-bungarotoxin binders on microarray, profiling panel, artefact control for SMM control protein annotation, biochemical, small-molecule microarray, Alexa647 label, 635/667 nm fluorescence (AID 1117)
Conditions: alpha-BTX-A647 binding fluorescence, higher = more signal
ENDPOINT: composite z-score
Number only, please.

Here are 3 compounds together with their reported answers.
compound=CC(C)CNC(=O)[C@@]1(C)c2ccccc2C(=O)N(Cc2cc(F)cc(C(F)(F)F)c2)[C@H]1c1ccc(CO)cc1 endpoint="composite z-score" measurement=0.884
compound=CN1C(=O)[C@]2(CCC(=O)OC(C)(C)C)N=C(c3ccc(OCCCO)cc3)O[C@@H]2c2ccccc21 endpoint="composite z-score" measurement=1.14
compound="O=C1OCCC=C[C@H]2OC34C=CCN(CCN5CCOCC5)C(=O)[C@H]3N(CCCO)C(=O)[C@@H]4C12 (stereo partly drawn)" endpoint="composite z-score" measurement=-0.386

Sample "C/C=C/CN(C(=O)C#Cc1ccccc1)[C@H](CO[Si](C)(C)C(C)(C)C)c1ccccc1" , system: Alpha-bungarotoxin (Bungarus multicinctus) (UniProt P60615). Its composite z-score is -2.16

Value sought: composite z-score, system Alpha-bungarotoxin (Bungarus multicinctus) (UniProt P60615), item CC(=O)n1cc(C(O)C2C=CC3C(=O)N(c4ccccc4)C(=O)C3N2Nc2ccccc2F)c2ccccc21 (stereo not drawn) . Result: 0.403

Measured composite z-score for this entry COc1cc2c(cc1O)C(C1CC1)N(Cc1ccc([N+](=O)[O-])o1)CC2 (stereo not drawn) on Alpha-bungarotoxin (Bungarus multicinctus) (UniProt P60615): 0.42

// returns composite z-score for "C[N+](C)(C)CCCC[C@@H]1NC(=O)[C@H]2C[C@@H](C(=O)NCCCCCNC(=O)CS)[C@@H](c3ccc(O)cc3)N2C1=O" with Alpha-bungarotoxin (Bungarus multicinctus) (UniProt P60615); value = -0.256

Summary: CC=CC(O)C1C=CC2C(=O)N(C)C(=O)C2N1NC(=O)OC(C)(C)C (stereo not drawn) , Alpha-bungarotoxin (Bungarus multicinctus) (UniProt P60615), composite z-score = 0.277

Alpha-bungarotoxin (Bungarus multicinctus) (UniProt P60615) assay, compound "CCCC[C@@H]1C[C@H]1[C@@H](NC(=O)c1ccc(C(F)(F)F)cc1)c1ccc(C(=O)OC)cc1" , recorded composite z-score = 1.48

For "CC(C)[C@@H](C(=O)O)n1cc(-c2ccccc2)nn1" on Alpha-bungarotoxin (Bungarus multicinctus) (UniProt P60615), measured composite z-score was 1.03

Reported Alpha-bungarotoxin (Bungarus multicinctus) (UniProt P60615) composite z-score for item CC(C)c1ccc(NN2C(C(O)C(C)C)C=CC3C(=O)N(c4ccccc4)C(=O)C32)cc1 (stereo not drawn) was 1.49

Bench note, Alpha-bungarotoxin (Bungarus multicinctus) (UniProt P60615): "CC#CCO[Si](C#CCCCCCC)(C(C)C)C(C)C" , composite z-score reads 0.0016

COc1ccc(NN2C(C(O)c3cc(C(F)(F)F)cc(C(F)(F)F)c3)C=CC3C(=O)N(C4CCCCC4)C(=O)C32)cc1 (stereo not drawn) tested on Alpha-bungarotoxin (Bungarus multicinctus) (UniProt P60615) gave composite z-score: 0.698
